# Lookup of reported GI50 keyed by entry
Test system: HS 578T breast
test protocol: NCI tumour cell line growth inhibition, 48 h
observable: GI50

compound	assayed system	observable	reported
O=C1NC(=O)C(c2cccc(Cl)c2)=C1Nc1ccc(O)c(Cl)c1	HS 578T breast	GI50	5110 nM
C[C@@H]1O[C@@H](O[C@H]2CC[C@@]3(C)[C@H](CCC4[C@@H]3C(O)C[C@]3(C)[C@@H](c5ccc(=O)oc5)CC[C@]43O)C2)[C@H](O)[C@H](O)[C@H]1O (some centres undefined)	HS 578T breast	GI50	< 3.25 nM
COc1ccc(C2[C@@H](Cl)C(=O)N2c2cc(OC)c(OC)c(OC)c2)cc1Cl (some centres undefined)	HS 578T breast	GI50	70.5 nM
CCN1C(=O)N(CC)C2C1NN=c1s/c(=C\c3ccccc3Br)c(=O)n12 (centres undefined)	HS 578T breast	GI50	35.5 nM
CC(C)(C)c1ccc(C(=O)Nc2sc3c(c2C(N)=O)CCC(=O)C3)cc1	HS 578T breast	GI50	1110 nM
CCCCn1c(=O)c2c(nc3n2CCCN3CCc2ccc(OCC(=O)NCCN(CC)CC)cc2)n(CCCC)c1=O	HS 578T breast	GI50	1760 nM
N#CN1CC[C@H](C(=O)Nc2ncc(-c3ccncc3)s2)C1	HS 578T breast	GI50	94.8 nM
Nc1ccc(-c2nc3ccccc3[nH]2)c2ccccc12	HS 578T breast	GI50	3500 nM
O=C(Nc1cccc(Nc2ncc(Br)c(NCCc3cnc[nH]3)n2)c1)N1CCCC1	HS 578T breast	GI50	747 nM
